Molecular target: Prostaglandin G/H synthase 2 (Homo sapiens)
Sequence (P35354 whole entry): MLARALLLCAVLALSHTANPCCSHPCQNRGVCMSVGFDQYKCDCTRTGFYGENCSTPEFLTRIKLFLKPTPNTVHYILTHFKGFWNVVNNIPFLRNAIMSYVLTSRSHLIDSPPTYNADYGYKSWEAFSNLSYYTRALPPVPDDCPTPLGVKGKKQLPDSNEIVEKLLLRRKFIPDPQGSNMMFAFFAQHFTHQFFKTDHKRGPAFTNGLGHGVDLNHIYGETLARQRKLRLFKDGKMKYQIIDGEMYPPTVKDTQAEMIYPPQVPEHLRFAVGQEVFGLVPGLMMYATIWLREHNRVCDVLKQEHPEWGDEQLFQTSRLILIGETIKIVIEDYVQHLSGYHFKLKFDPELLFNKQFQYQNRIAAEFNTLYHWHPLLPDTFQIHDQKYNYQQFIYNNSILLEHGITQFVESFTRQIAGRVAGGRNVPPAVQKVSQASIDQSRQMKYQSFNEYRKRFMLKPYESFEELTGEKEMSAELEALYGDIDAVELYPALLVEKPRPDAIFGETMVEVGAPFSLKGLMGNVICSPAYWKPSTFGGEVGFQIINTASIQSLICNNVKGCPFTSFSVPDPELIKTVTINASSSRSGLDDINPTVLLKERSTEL
measurement-label: IC50 (µM)

(I) CC(=O)Nc1nn2c(NC(C)=O)cc(=O)[nH]c2c1/N=N/c1ccc(O)cc1
(II) COC(=O)c1cc(=O)n2nc(N)c(/N=N/c3ccc(O)cc3)c2[nH]1
INPUT: Hey, which is lower on measured IC50, I or II ? Please indicate the selected item by its label.
OUTPUT: I
